Record set: IC50 | Metabotropic glutamate receptor 5 (Rattus norvegicus, UniProt P31424) | literature, multiple sources.

Reference set, count: 6
smiles_data	assayed_target	test_value
Fc1ccc(-c2cn(CCC#Cc3ccccn3)nn2)cc1	Metabotropic glutamate receptor 5 (Rattus norvegicus, UniProt P31424)	< 0.5 µM
FCc1cccc(C#CCCc2cn3cccc(Br)c3n2)n1	Metabotropic glutamate receptor 5 (Rattus norvegicus, UniProt P31424)	< 0.05 µM
COc1ccccc1-c1noc(CCC#Cc2ccccn2)n1	Metabotropic glutamate receptor 5 (Rattus norvegicus, UniProt P31424)	< 10 µM
O=C(Nc1nccs1)c1cccc(Oc2cncnc2)c1	Metabotropic glutamate receptor 5 (Rattus norvegicus, UniProt P31424)	4.55 µM
COc1cccc(-c2noc(CCC#Cc3ccccn3)n2)c1	Metabotropic glutamate receptor 5 (Rattus norvegicus, UniProt P31424)	< 10 µM
O=C(Nc1cncc(Oc2cccnc2)n1)c1cccc(Cl)c1	Metabotropic glutamate receptor 5 (Rattus norvegicus, UniProt P31424)	0.1 µM

Give its IC50 value. Item: `C(#Cc1ccncn1)CCc1nc2ccccc2o1`
< 10 µM

Fill in: IC50 of `Cn1c(CCC#Cc2cccc(CF)n2)nc2c(F)cc(F)cc21` is ___
< 0.5 µM

Dear colleague, I am looking for the recorded IC50 of the following compound: `Fc1ccc2oc(CCC#Cc3ccccn3)nc2c1`
< 10 µM

Please report the recorded IC50 for `N#Cc1cncc(C(=O)Nc2cncc(Oc3cncnc3)c2)c1` .
> 10 µM

What value of measured IC50 is listed for `O=C(Nc1cncc(Oc2cncnc2)c1)c1cccc(C(F)(F)F)n1` ?
> 30 µM

Need IC50 of `Cc1ccc2nn(CCC#Cc3cccc(CF)n3)nc2c1` , thanks.
< 0.05 µM

Sample `Cc1csc(NC(=O)c2cc(Cl)cc(N(C)c3cccnc3)c2)n1` — what was its IC50?
0.049 µM
